- target.under.test: wt human TYK2, catalytic site (Homo sapiens)
- Construct: wt human TYK2, catalytic site
- Sequence (P29597 897-1176 limits assumed): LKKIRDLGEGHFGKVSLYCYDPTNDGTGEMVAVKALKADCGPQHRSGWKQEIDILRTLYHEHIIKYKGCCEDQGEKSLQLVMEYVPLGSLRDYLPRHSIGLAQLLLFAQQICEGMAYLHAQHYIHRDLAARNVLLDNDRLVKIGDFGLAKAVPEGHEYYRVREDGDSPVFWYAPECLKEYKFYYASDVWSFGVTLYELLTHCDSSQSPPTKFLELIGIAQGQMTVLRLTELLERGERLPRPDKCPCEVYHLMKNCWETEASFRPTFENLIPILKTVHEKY
- test.protocol: HTRF KinEASE assay, TYK2
- reported.conditions: 1 μM ATP; read-out: IC50, Activity Toward TYK2
measure: IC50

Enquiry: Quote IC50 reported for CN1CCN(S(=O)(=O)c2ccc(Nc3cn(-c4c(Cl)cccc4Cl)nc3C(N)=O)cc2)CC1 [compound 85] please.
Return: < 10 nM

Enquiry: Quote IC50 reported for CC(C)(C)C(=O)c1ccc(Nc2cn(-c3c(Cl)cccc3Cl)nc2C(N)=O)cc1 [compound 41] please.
Return: 100 to 1000 nM

Enquiry: Quote IC50 reported for NC(=O)c1nn(-c2c(Cl)cccc2Cl)cc1Nc1ccc(-n2ncnc2C2COC2)cc1 [compound 347] please.
Return: < 10 nM

Enquiry: Quote IC50 reported for CN1CCC(Oc2ccc(Nc3cn(-c4c(Cl)cccc4Cl)nc3C(N)=O)cc2)CC1 [compound 237] please.
Return: < 10 nM

Enquiry: Quote IC50 reported for NC(=O)c1nn(-c2c(Cl)cccc2Cl)cc1Nc1ccc(C(=O)N2CCOCC2)cn1 [compound 74] please.
Return: 10 to 100 nM

Enquiry: Quote IC50 reported for CCc1ccnn1-c1ccc(Nc2cn(-c3c(F)cccc3F)nc2C(N)=O)cc1 [compound 287] please.
Return: 100 to 1000 nM

Enquiry: Quote IC50 reported for Cc1ccnc(Nc2cn(-c3c(F)cccc3F)nc2C(N)=O)c1 [compound 10] please.
Return: 100 to 1000 nM

Enquiry: Quote IC50 reported for N#Cc1cccc2nnc(-c3ccc(Nc4cn(-c5c(Cl)cccc5Cl)nc4C(N)=O)cn3)n12 [compound 476] please.
Return: 100 to 1000 nM

Enquiry: Quote IC50 reported for CCCc1nc(C(F)(F)F)nn1-c1ccc(Nc2cn(-c3c(Cl)cccc3Cl)nc2C(N)=O)cc1 [compound 279] please.
Return: 100 to 1000 nM

Enquiry: Quote IC50 reported for NC(=O)c1nn(-c2c(F)cccc2F)cc1Nc1nc2ccccc2[nH]1 [compound 11] please.
Return: 100 to 1000 nM

Enquiry: Quote IC50 reported for CCNC(=O)c1ccc(Nc2cn(-c3c(Cl)cccc3Cl)nc2C(N)=O)cc1 [compound 34] please.
Return: 10 to 100 nM

Enquiry: Quote IC50 reported for Cc1cc(C(F)(F)F)nn1-c1ccc(Nc2cn(-c3c(Cl)cccc3Cl)nc2C(N)=O)cc1 [compound 257] please.
Return: 100 to 1000 nM

Enquiry: Quote IC50 reported for Cc1cnncc1-c1ccc(Nc2cn(-c3c(Cl)cccc3Cl)nc2C(N)=O)cn1 [compound 350] please.
Return: 100 to 1000 nM

Enquiry: Quote IC50 reported for Cc1c(C#N)cnn1-c1ccc(Nc2cn(-c3c(Cl)cccc3Cl)nc2C(N)=O)cc1 [compound 253] please.
Return: 100 to 1000 nM

Enquiry: Quote IC50 reported for CN1CCN(C(=O)c2ccc(Nc3cn(-c4c(F)cccc4Cl)nc3C(N)=O)cc2)CC1 [compound 36] please.
Return: < 10 nM

Enquiry: Quote IC50 reported for NC(=O)c1nn(-c2c(Cl)cccc2Cl)cc1Nc1ccc(C(=O)N2CCN(C3CC3)CC2)cc1 [compound 84] please.
Return: < 10 nM

Enquiry: Quote IC50 reported for NC(=O)c1nn(-c2c(F)cccc2Cl)cc1Nc1ccc(C(=O)N2CCCC2)cc1 [compound 227] please.
Return: < 10 nM

Enquiry: Quote IC50 reported for Cc1cnccc1-c1ccc(Nc2cn(-c3c(Cl)cccc3Cl)nc2C(N)=O)cc1 [compound 260] please.
Return: 100 to 1000 nM
